assay: BSK_CASM3C_Proliferation: Cell Proliferation Assessment in the BioMAP Diversity Plus: CASM3C Assay (AID 2283047); conditions: primary human coronary artery smooth muscle cells;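 note: sulforhodamine B total protein stain as relative cell number at 560 nm; sub-confluent cells exposed 48 h before staining; fitted both ways against DMSO so gain or loss of cell number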
Calls of active or inactive are those of the source. Rule for the calls: active = hit-call score of the fitted dose curve at least 0.9, where 1 is the maximum; inactive = score below 0.9.
# valid calls are active, inactive; nothing else

Examples from the recorded data:
O=C1CCCCCCCCCCCCCCO1	active
CNC[C@H](O)c1cccc(O)c1	inactive
COc1cc(C=O)ccc1OC(=O)C(C)C	inactive

Entry Cc1ccc2n[nH]nc2c1 : call = ?
inactive

Entry Cc1cc(C2(c3cc(C)c(O)cc3C)OS(=O)(=O)c3ccccc32)c(C)cc1O : call = ?
inactive

Entry Nc1cc([N+](=O)[O-])ccc1Cl : call = ?
inactive

Entry Cc1ccc(O)c(C(C)(C)C)c1 : call = ?
active

Entry CN(CCOc1ccc(CC2SC(=O)NC2=O)cc1)c1ccccn1 (stereo not drawn) : call = ?
inactive

Entry CCCCC(CC)COC(=O)/C=C\C(=O)OCC(CC)CCCC (stereo not drawn) : call = ?
inactive

Entry Nc1cc([N+](=O)[O-])ccc1O : call = ?
inactive

Entry CCC(=O)OCc1ccccc1 : call = ?
inactive

Entry O=C(O)c1cn(-c2ccc(F)cc2)c2cc(N3CCNCC3)c(F)cc2c1=O : call = ?
inactive

Entry c1ccc2sc(SN(C3CCCCC3)C3CCCCC3)nc2c1 : call = ?
active

Values from PubChem BioAssay (EPA / NIEHS)
